Answer each item with its documented EC50, RSV (Long) microneutralization.
Target: F protein of wild type RSV A/Long (respiratory syncytial virus, strain …, UniProt P12568 26-574)
Sequence (P12568 26-574): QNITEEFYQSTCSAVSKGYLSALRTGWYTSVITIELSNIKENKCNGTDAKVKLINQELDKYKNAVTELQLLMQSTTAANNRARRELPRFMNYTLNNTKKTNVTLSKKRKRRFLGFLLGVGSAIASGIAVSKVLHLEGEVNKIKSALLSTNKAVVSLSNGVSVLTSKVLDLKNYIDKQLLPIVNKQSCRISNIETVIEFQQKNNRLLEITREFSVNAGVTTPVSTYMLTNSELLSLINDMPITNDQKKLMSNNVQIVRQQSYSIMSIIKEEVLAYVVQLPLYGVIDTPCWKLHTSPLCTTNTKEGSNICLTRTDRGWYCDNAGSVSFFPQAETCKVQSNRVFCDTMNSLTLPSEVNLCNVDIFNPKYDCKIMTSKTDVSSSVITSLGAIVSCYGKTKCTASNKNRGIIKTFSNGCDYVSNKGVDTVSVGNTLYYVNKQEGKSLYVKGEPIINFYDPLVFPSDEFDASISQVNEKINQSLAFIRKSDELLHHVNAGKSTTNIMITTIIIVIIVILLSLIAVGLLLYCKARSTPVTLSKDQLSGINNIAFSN
Test: cell-based or functional assay
One number for each entry, in nM.

binder	EC50, RSV (Long) microneutralization [nM]
P12f2 (Fab) (Fab, V domains shown, also called Pf12; P1212) VH: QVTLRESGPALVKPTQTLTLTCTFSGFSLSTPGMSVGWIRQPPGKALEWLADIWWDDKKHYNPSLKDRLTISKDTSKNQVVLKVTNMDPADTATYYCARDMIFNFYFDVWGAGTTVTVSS VL: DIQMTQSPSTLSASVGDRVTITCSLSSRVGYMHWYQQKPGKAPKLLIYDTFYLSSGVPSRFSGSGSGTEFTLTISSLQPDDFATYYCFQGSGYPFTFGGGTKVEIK	0.65
A13c4 (Fab) (Fab, V domains shown) VH: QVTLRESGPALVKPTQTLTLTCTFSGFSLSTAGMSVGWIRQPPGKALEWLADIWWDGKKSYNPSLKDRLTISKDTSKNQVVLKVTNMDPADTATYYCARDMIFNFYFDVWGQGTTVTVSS VL: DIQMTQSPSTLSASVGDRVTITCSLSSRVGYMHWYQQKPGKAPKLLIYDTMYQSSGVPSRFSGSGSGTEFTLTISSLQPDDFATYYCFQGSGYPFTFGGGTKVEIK	0.52

API: the following record is the query input.
Any idea what EC50, RSV (Long) microneutralization was measured for A12a6 (Fab) (Fab, V domains shown) VH: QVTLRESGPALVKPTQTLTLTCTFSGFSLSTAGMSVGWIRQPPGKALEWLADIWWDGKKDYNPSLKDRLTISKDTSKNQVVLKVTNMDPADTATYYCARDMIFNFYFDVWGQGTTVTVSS VL: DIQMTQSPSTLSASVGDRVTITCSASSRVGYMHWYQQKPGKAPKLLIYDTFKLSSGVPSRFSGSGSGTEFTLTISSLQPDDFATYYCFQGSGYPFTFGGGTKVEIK ?
0.62

Values compiled from patent US20020177126A1.
